These entries and their values trace back to the supplement of paper PMC9135407.

I'd appreciate it if you could supply scaled lipid accumulation score values for the items below.
test system: primary human hepatic stellate cells (donor 1); assay: scaled lipid accumulation score (0 = DMSO-like, 1 = nortriptyline-like); higher = stronger HSC inactivation (lipid re-accumulation), active = hit call of the paper; conditions: 48 h
Where a name gives a salt, the structure may show the parent alone. In all, about 5,800 compounds went through this assay and about 620 (11%) showed activity. The list comes from a sample in which actives are over-represented; it also holds close analogues and randomly drawn compounds.

Can you share its scaled lipid accumulation score? I mean this compound: C[C@@H]1O[C@@H](O[C@@H]2C=C3CC[C@@H]4[C@H](CC[C@]5(C)[C@@H](c6ccc(=O)oc6)CC[C@]45O)[C@@]3(C)CC2)[C@H](O)[C@H](O)[C@H]1O [Proscillaridin A]
0.768 (inactive)

Can you share its scaled lipid accumulation score? I mean this compound: CNCC(O)c1ccc(O)c(OC)c1 (stereo not drawn) [Metanephrine hydrochloride DL]
0.001 (inactive)

Can you share its scaled lipid accumulation score? I mean this compound: CC[C@H]1CN2CC[C@H]1C[C@H]2[C@H](O)c1ccnc2ccc(OC)cc12 [Hydroquinine hydrobromide hydrate]
≤ 0 (inactive)
